Hello, the source for this data is patent US9073911B2, in case you need it.

testedOn: rat TAAR1 (Rattus norvegicus (Rat), UniProt Q923Y9)
Sequence (Q923Y9 whole entry): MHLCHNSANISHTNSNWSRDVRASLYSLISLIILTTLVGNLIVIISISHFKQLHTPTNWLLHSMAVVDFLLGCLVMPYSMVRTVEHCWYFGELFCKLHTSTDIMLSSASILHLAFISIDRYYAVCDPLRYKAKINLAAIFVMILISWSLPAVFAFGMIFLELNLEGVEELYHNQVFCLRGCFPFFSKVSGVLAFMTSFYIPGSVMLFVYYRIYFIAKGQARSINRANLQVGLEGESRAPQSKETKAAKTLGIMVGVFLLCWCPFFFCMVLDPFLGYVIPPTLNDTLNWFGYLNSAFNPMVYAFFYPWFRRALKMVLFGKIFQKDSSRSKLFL
experimentalEndpoint: Kd

compound="CCN(C[C@H]1COC(N)=N1)c1ccccc1 [reference compound]" observedresult="~2.3 nM"

---

testedOn: rat TAAR1 (Rattus norvegicus (Rat), UniProt Q923Y9)
testMethodNotes: Radioligand binding assay on rat TAAR1
conditionLabel: membranes of HEK-293 cells stably expressing rat TAAR1; second value of cell mouse/rat
Counter-ions that a name gives are not always drawn.
experimentalEndpoint: log10 of Ki (log10 of the value in µM)

compound="N#Cc1ccc(-n2ccc(C(=O)Nc3ccc([C@H]4CNCCO4)cc3)n2)cc1 [Example 34, hydrochloride]" observedresult=-2.04
compound="O=C(Nc1ccc([C@H]2CNCCO2)cc1)c1ccn(-c2ncc(C(F)(F)F)cn2)n1 [Example 47, hydrochloride]" observedresult=-1.71
compound="CCn1nc(-c2cccc(OC(F)F)c2)cc1C(=O)Nc1ccc([C@H]2CNCCO2)cc1 [Example 42, hydrochloride]" observedresult=-2.68
compound="N#Cc1cnc(-n2ccc(C(=O)Nc3ccc([C@H]4CNCCO4)cc3)n2)cn1 [Example 53, hydrochloride]" observedresult=-1.53
compound="COc1ccc(-c2cc(C(=O)Nc3ccc([C@H]4CNCCO4)cc3)[nH]n2)cc1 [Example 7, hydrochloride]" observedresult=-2.31
compound="Cc1c(-c2ccccc2)n[nH]c1C(=O)Nc1ccc([C@H]2CNCCO2)cc1 [Example 6, hydrochloride]" observedresult=-2.10
compound="O=C(Nc1ccc([C@@H]2CNCCO2)cc1)c1cc(-c2ccc(Cl)cc2)n[nH]1 [Example 12, hydrochloride]" observedresult=-3.40
compound="N#Cc1cccc(-c2cc(C(=O)Nc3ccc([C@H]4CNCCO4)cc3)[nH]n2)c1F [Example 43, hydrochloride]" observedresult=-1.96
compound="O=C(Nc1ccc([C@H]2CNCCO2)cc1)c1cc(-c2ccccc2Cl)n[nH]1 [Example 10, hydrochloride]" observedresult=-2.59
compound="Cc1c(C(=O)Nc2ccc([C@H]3CNCCO3)cc2)n[nH]c1-c1cccc(C#N)c1 [Example 27, hydrochloride]" observedresult=-1.87
